self-cleavage values, listed per item
B1: LINE1-mini (parent)
chain: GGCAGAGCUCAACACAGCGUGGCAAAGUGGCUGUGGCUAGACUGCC

- Variants of: B1
- experiment: self-cleavage, relative activity (ratio to wild type); higher = more cleavage; in vitro, sequencing; the parent is a self-cleaving ribozyme
Answer as a number with no unit attached.

Recorded results for 5 variants are shown here.
GGCAAAGCUCAACAUAGCGUGGCAAAGUGGCUGUGGCUAGACUGCC | 0.11
GGCAGAGGUCAACACAGCGUUGCAAAGUGGCUGUGGCUAGACUGCC | 0.13
GGCAGAGCUAAACACAGCGUGGCAAAGUGGCUGUGGGUAGACUGCC | 0.01
GGCAGAGGGCAACACAGCGUGGCAAAGUGGCUGUGGCUAGACUGCC | 0.12
GGCCGAGCUCAACACAGCGUGGCAAAGUGGCUGUGGCUAAACUGCC | 0.16

Q: Suppose we examine the variant GGCGGAGCUCAACACAGCGUGGCAAAGAGGCUGUGGCUAGACUGCC ; what self-cleavage value has been reported?
A: 0.13

Q: Suppose we examine the variant GGCAGAGCUCAACACAGCGUGGCAAAGUGGCUGUGGCAAGAUUGCC ; what self-cleavage value has been reported?
A: 0.21

Q: Suppose we examine the variant GGCCGAGCUCAACACAGCGUGGCAAAGUGGCUAUGGCUAGACUGCC ; what self-cleavage value has been reported?
A: 0.29

Q: Suppose we examine the variant GGCAGAGCUCAACACAGGGUGGCAUAGUGGCUGUGGCUAGACUGCC ; what self-cleavage value has been reported?
A: 0.51

Q: Suppose we examine the variant GGCAGAGCUCAACACAGCGUGCCAAAGUGGCUGUGGCUCGACUGCC ; what self-cleavage value has been reported?
A: 0.19

Q: Suppose we examine the variant GGCAGAGCUCAUCACAGCGUGGCCAAGUGGCUGUGGCUAGACUGCC ; what self-cleavage value has been reported?
A: 0.24

Q: Suppose we examine the variant GGCAGAGCUCAACACAGCGUGGCAAGGUCGCUGUGGCUAGACUGCC ; what self-cleavage value has been reported?
A: 0.89

Q: Suppose we examine the variant GGCAGAGCUCAACACAGCGUGGCAAAGUGGCUGUGGCUACACUGCA ; what self-cleavage value has been reported?
A: 0.1

Q: Suppose we examine the variant GGCAGAGCUCAACAGAGCGUGGCAAAGUGGAUGUGGCUAGACUGCC ; what self-cleavage value has been reported?
A: 0.02

Q: Suppose we examine the variant GGCAGAGCUCAGCACAGCGUGGCCAAGUGGCUGUGGCUAGACUGCC ; what self-cleavage value has been reported?
A: 0.02

Q: Suppose we examine the variant GGCACAGCUCAACACACCGUGGCAAAGUGGCUGUGGCUAGACUGCC ; what self-cleavage value has been reported?
A: 0.03

Q: Suppose we examine the variant GGCAGAGCUCAACACAGCGUGGCAAAGUGGAUGUGGCUAGCCUGCC ; what self-cleavage value has been reported?
A: 0.03

Q: Suppose we examine the variant GGCAGAGCUCAACACAGCGUGGCAAAGGAGCUGUGGCUAGACUGCC ; what self-cleavage value has been reported?
A: 0.34

Q: Suppose we examine the variant GGCAGAGCUCAACACAGCGUGGCAAAGUGGCUGUGGCUAGAAUGUC ; what self-cleavage value has been reported?
A: 0.13

Q: Suppose we examine the variant GGCAGAGCUCAACAUAGCGUGGCAUAGUGGCUGUGGCUAGACUGCC ; what self-cleavage value has been reported?
A: 0.77

Q: Suppose we examine the variant GGCAGAGCUCAACACAGCGUGGCAAAGUGGCUGUCGCUUGACUGCC ; what self-cleavage value has been reported?
A: 0.06

Q: Suppose we examine the variant GGCAGAGCUCAAUACAGCGUGGCGAAGUGGCUGUGGCUAGACUGCC ; what self-cleavage value has been reported?
A: 0.13
